Where do these numbers come from? They come from patent US10526327B2.

Entries annotated with measured IC50
# Target: Jarid1A (Homo sapiens)
# Sequence (P29375 1-1090): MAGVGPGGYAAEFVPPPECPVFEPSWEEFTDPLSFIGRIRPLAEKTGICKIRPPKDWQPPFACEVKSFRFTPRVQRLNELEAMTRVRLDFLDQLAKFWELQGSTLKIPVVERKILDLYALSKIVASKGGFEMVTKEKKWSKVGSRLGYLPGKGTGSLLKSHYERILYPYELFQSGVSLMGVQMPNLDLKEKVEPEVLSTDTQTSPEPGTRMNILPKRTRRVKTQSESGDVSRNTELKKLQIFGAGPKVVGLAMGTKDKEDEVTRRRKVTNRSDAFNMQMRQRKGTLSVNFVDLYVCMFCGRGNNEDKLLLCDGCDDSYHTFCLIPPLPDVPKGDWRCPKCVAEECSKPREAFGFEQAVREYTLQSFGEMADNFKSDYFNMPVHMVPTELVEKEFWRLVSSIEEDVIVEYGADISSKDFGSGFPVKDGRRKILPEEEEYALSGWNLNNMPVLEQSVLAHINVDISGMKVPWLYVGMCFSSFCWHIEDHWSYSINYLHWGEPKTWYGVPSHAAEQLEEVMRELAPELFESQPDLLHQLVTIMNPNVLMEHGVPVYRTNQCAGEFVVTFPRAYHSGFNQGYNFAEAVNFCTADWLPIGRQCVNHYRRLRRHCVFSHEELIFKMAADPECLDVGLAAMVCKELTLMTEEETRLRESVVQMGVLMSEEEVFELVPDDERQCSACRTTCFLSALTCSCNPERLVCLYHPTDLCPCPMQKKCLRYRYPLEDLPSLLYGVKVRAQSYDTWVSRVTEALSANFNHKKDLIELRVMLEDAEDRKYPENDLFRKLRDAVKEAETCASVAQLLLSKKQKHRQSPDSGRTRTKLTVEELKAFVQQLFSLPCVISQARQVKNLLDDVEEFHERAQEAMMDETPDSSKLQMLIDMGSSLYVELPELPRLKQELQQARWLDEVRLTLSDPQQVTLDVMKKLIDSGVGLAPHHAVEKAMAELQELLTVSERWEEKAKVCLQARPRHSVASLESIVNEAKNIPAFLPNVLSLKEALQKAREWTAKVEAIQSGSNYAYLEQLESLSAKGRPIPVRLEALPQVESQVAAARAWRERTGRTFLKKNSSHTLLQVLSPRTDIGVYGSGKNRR

{"columns": ["Compound", "IC50"],
 "data": [
  ["O=S(=O)(C1CC1)N1CC[C@H](n2cc(Oc3nc(O)c4ccncc4n3)cn2)C1", "≤ 100 nM"],
  ["Oc1nc(OCC2CCCO2)nc2cnccc12 (stereo not drawn)", "100 to 1000 nM"],
  ["Oc1nc(OCCC(F)(F)F)nc2cnccc12", "≤ 100 nM"],
  ["Cn1cnc(-c2nccc3c(O)nc(OCc4ccc(C(F)(F)F)cc4)nc23)c1", "≤ 100 nM"],
  ["Cn1cnc(-c2nccc3c(=O)[nH]cnc23)c1", "100 to 1000 nM"],
  ["Oc1nc(OCCOCc2ccccc2)nc2cnccc12", "100 to 1000 nM"],
  ["C[C@H](c1ccccc1F)n1cc(Oc2nc(O)c3ccncc3n2)cn1", "≤ 100 nM"],
  ["O=S(=O)(c1ccccc1)N1CCC[C@@H](n2cc(Oc3nc(O)c4ccncc4n3)cn2)C1", "≤ 100 nM"],
  ["Oc1nc(OCc2cccc(F)c2F)nc2cnccc12", "1000 to 10000 nM"],
  ["Oc1nc(OCc2c(Cl)cccc2Cl)nc2cnccc12", "1000 to 10000 nM"],
  ["O=S(=O)(c1ccccc1)N1CC[C@@H](n2cc(Oc3nc(O)c4ccncc4n3)cn2)C1", "≤ 100 nM"],
  ["CC(C)COc1nc(O)c2ccncc2n1", "100 to 1000 nM"],
  ["Oc1nc(Oc2cnn([C@H]3CCN(c4ccccc4F)C3)c2)nc2cnccc12", "≤ 100 nM"],
  ["CCOc1c(F)cc(Oc2nc(O)c3ccncc3n2)cc1F", "≤ 100 nM"],
  ["O=C(C1CCNCC1)N1CC[C@H](n2cc(Oc3nc(O)c4ccncc4n3)cn2)C1", "≤ 100 nM"],
  ["CC(C)CCOc1nc(O)c2ccncc2n1", "≤ 100 nM"],
  ["Oc1nc(OC(c2ccccc2)C(F)(F)F)nc2cnccc12 (stereo not drawn)", "1000 to 10000 nM"],
  ["CC(C)Oc1nc(O)c2ccncc2n1", "100 to 1000 nM"],
  ["O=C(C1CC1)N1CC[C@H](n2cc(Oc3nc(O)c4ccncc4n3)cn2)C1", "≤ 100 nM"],
  ["O=S(=O)(c1ccccc1)N1CC[C@H](n2cc(Oc3nc(O)c4ccncc4n3)cn2)C1", "≤ 100 nM"],
  ["C[C@H](c1ccccc1)n1cc(Oc2nc(O)c3ccncc3n2)cn1", "≤ 100 nM"],
  ["Oc1nc(Oc2cnn([C@@H]3CCCNC3)c2)nc2cnccc12", "≤ 100 nM"],
  ["CCS(=O)(=O)N1CC[C@@H](n2cc(Oc3nc(O)c4ccncc4n3)cn2)C1", "≤ 100 nM"],
  ["O=S(=O)(C1CC1)N1CCC[C@H](n2cc(Oc3nc(O)c4ccncc4n3)cn2)C1", "≤ 100 nM"],
  ["Oc1nc(OCC2CCCc3ccccc32)nc2cnccc12 (stereo not drawn)", "100 to 1000 nM"],
  ["Cn1cnc(-c2nccc3c(O)nc(OCCCC(F)(F)F)nc23)c1", "≤ 100 nM"],
  ["C[C@@H](c1ccccc1)n1cc(Oc2nc(O)c3ccncc3n2)cn1", "≤ 100 nM"],
  ["Oc1nc(Oc2cccc(C(F)(F)F)c2)nc2cnccc12", "≤ 100 nM"],
  ["CCOc1nc(O)c2ccnc(-c3cn(C)cn3)c2n1", "≤ 100 nM"],
  ["O=S(=O)(C1CC1)N1CCC(n2cc(Oc3nc(O)c4ccncc4n3)cn2)CC1", "≤ 100 nM"],
  ["CC(=O)Nc1ccc(Oc2nc(O)c3ccncc3n2)cc1", "≤ 100 nM"],
  ["COCCn1ncc2ccc(Oc3nc(O)c4ccncc4n3)cc21", "≤ 100 nM"],
  ["Oc1nc(OCCOc2ccccc2)nc2cnccc12", "≤ 100 nM"],
  ["Cn1cnc(-c2nccc3c(O)nc(Oc4cnn(Cc5ccccc5)c4)nc23)c1", "≤ 100 nM"],
  ["Oc1nc(OCc2ccc(C(F)(F)F)cc2)nc2cnccc12", "1000 to 10000 nM"],
  ["CC(C)(C)OC(=O)N1CCC(n2cc(Oc3nc(O)c4ccncc4n3)cn2)CC1", "≤ 100 nM"],
  ["Cn1cnc(-c2nccc3c(O)nc(OCc4ccc(F)cc4)nc23)c1", "≤ 100 nM"],
  ["Oc1nc(Oc2cccc(F)c2)nc2cnccc12", "≤ 100 nM"],
  ["Oc1nc(Oc2ccnc(N3CCOCC3)c2)nc2cnccc12", "≤ 100 nM"]
]}
